Entries and their recombinant barcode read abundance (log10)
- assay: recombinant barcode read abundance after kanamycin selection (control-corrected) (log10(CPM+1)); higher = more efficient recombination; sequences stand for … in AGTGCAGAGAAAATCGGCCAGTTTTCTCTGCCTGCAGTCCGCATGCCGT…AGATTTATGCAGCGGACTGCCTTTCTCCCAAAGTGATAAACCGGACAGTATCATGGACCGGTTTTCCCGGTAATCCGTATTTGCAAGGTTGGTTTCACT; site = the 11-nt target;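 note: IS621 recombinase and bridge RNA in Escherichia coli cells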
property: recombinant barcode read abundance (log10)

>>> test_result("TAGTGAGCTTGGGTTCTAACCTGTTGCCT (site TAGTGAGCTAG)")
1.37
>>> test_result("CGGCTGCCTTGGGTTCTAACCTGTTGCGG (site CGGCTGCCTCC)")
2.57
>>> test_result("CCAAGTCCTTGGGTTCTAACCTGTTGCCA (site GTTCAGACTAA)")
0.031
>>> test_result("ACGCTAGCTTGGGTTCTAACCTGTTGCCT (site CCGCTAGCTAG)")
0.138
>>> test_result("TACGCTCCTTGGGTTCTAACCTGTTGCCT (site TACGCTCCTAA)")
0.0709
